Listed here: items and their measured log10 EC50.
- STUDY SYSTEM: Kappa-type opioid receptor (Homo sapiens)
- Sequence (P41145 whole entry): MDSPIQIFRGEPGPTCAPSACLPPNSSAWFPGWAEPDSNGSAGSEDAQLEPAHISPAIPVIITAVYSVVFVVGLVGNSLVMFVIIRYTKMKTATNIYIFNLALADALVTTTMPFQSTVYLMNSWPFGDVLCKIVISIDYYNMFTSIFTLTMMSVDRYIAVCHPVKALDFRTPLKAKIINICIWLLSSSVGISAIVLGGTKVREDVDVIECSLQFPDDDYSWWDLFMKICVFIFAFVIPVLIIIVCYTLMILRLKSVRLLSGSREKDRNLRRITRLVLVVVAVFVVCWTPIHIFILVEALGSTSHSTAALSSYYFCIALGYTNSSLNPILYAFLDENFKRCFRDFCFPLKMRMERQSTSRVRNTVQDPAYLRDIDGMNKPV
- PROTOCOL NOTES: Inhibition of human kappa opioid receptor expressed in HEK293T cells assessed as inhibition of cAMP production after 30 mins
OBSERVABLE: log10 EC50 (log10 of the value in nM)

>>> val("C=CC(C)C(=O)O[C@H]1C[C@@H](C(=O)OC)[C@]2(C)CC[C@H]3C(=O)O[C@H](c4ccoc4)C[C@]3(C)[C@H]2C1=O (stereo not given in full)")
1.57
>>> val("COC(=O)[C@@H]1C[C@H](OC(=O)/C=C/c2ccc(C(F)(F)F)cc2)C(=O)[C@H]2[C@@]1(C)CC[C@H]1C(=O)O[C@H](c3ccoc3)C[C@]21C")
2.81
>>> val("COC(=O)[C@@H]1C[C@H](OC(=O)/C=C/c2ccc(OC)cc2OC)C(=O)[C@H]2[C@@]1(C)CC[C@H]1C(=O)O[C@H](c3ccoc3)C[C@]21C")
1.43
>>> val("COC(=O)[C@@H]1C[C@H](OC(=O)C=C(C)C)C(=O)[C@H]2[C@@]1(C)CC[C@H]1C(=O)O[C@H](c3ccoc3)C[C@]21C")
2.84
>>> val("COC(=O)[C@@H]1C[C@H](OC(=O)/C=C/c2ccc3c(c2)OCO3)C(=O)[C@H]2[C@@]1(C)CC[C@H]1C(=O)O[C@H](c3ccoc3)C[C@]21C")
1.70

Value source: ChEMBL document CHEMBL3351980
